Compiled record: IC50 values for MALT1 (Homo sapiens) across several sources.
Observed property: IC50

N#Cc1cc(NC(=O)c2cnn(-c3ccccc3Cl)c2C(F)(F)F)cnc1-n1nccn1    117 nM
Cn1nc(-c2cccc3c2OCCN3)c(C(F)(F)F)c1C(=O)Nc1ccnc(C(F)(F)F)c1    > 10000 nM
CC(C)c1c(Nc2ccc([C@H](N(C)C(=O)C3CCS(=O)(=O)CC3)C(F)(F)F)cc2)cnc2nc(Cl)nn12    < 100 nM
COCc1c(NC(=O)Nc2cnc(-n3nccn3)c(Cl)c2)cnc2sc(C)nc12    1 to 50 nM
CN(C(=O)C1CCS(=O)(=O)CC1)[C@@H](c1ccc(Nc2cnn(C3CC3)c2C(F)(F)F)cc1)C(F)(F)F    100 to 1000 nM
Nc1ccc2c(-n3ncc(C(=O)Nc4cnc(-n5nccn5)c(Cl)c4)c3C(F)(F)F)cccc2n1    501 nM
N#Cc1cc(NC(=O)c2cnn(-c3cnc(F)c4ccccc34)c2C(F)(F)F)cnc1-n1nccn1    91 nM
O=C(Nc1ccnc(C(F)(F)F)c1)c1snc(-c2ccc(C(F)(F)F)cc2)c1C1CC1    400 to 1000 nM
O=C(Nc1cnc(-n2nccn2)c(Cl)c1)c1cnn(-c2cccc3nccc(C(F)F)c23)c1C(F)(F)F    447 nM
CO[C@H](C)c1c(C#N)cncc1NC(=O)Nc1cnc(-n2nccn2)c(Cl)c1    2100 nM
COc1ccncc1-c1nsc(C(=O)Nc2ccnc(C(F)(F)F)c2)c1C1CC1    ≤ 400 nM
N#Cc1cc(NC(=O)c2cnn(-c3cncc4ccccc34)c2C(F)(F)F)ccn1    417 nM
COc1ncc(NC(=O)c2cnn(-c3cccc4ncccc34)c2C(F)(F)F)cc1Cl    41 nM
Cn1nc(-c2cnn3ccccc23)c(C(F)(F)F)c1C(=O)Nc1ccnc(C(F)(F)F)c1    2500 to 10000 nM
CSc1ncc(-n2ncc(C(=O)Nc3cnc(-n4nccn4)c(Cl)c3)c2C(F)(F)F)c2ccccc12    30 nM
Cc1c(-n2ncc(C(=O)Nc3cnc(-n4nccn4)c(C#N)c3)c2C(F)(F)F)ccc(F)c1F    74 nM

====

Compiled literature IC50, tested on MALT1 (Homo sapiens).
Sequence (Q9UDY8 whole entry): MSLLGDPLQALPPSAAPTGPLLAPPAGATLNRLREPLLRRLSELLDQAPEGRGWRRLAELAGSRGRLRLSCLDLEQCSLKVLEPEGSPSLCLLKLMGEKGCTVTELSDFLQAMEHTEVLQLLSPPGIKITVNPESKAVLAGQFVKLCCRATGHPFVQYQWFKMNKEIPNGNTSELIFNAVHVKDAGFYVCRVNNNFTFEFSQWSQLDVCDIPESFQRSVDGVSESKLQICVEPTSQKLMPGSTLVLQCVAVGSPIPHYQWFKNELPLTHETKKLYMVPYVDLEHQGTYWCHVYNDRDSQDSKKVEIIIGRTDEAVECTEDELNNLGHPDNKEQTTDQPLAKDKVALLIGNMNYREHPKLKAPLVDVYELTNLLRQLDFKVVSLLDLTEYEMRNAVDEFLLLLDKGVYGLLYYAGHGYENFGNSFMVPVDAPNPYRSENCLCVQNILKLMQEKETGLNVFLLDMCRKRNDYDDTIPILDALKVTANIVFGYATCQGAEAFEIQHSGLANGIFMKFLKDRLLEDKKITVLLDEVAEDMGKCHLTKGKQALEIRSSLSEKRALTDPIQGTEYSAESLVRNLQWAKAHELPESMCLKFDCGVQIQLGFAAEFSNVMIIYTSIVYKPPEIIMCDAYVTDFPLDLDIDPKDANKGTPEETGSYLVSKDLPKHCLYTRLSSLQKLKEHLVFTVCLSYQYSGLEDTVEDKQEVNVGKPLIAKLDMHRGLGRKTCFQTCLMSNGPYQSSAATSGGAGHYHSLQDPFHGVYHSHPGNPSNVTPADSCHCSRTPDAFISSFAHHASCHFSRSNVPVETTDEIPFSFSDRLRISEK
Lab note: cut-off is 700 nM. Strictly less in IC50 is 1 (yes). Exactly 700 nM or more is 0 (no).

Cn1nc(-c2cccc3c2OCO3)c(C(F)(F)F)c1C(=O)Nc1cnc(-n2nccn2)c(C#N)c1    1 (yes)
N#Cc1cc(NC(=O)c2cnn(-c3ccc(F)c4ccccc34)c2C(F)(F)F)cnc1-n1nccn1    1 (yes)
O=C(Nc1cnc(-n2nccn2)c(Cl)c1)c1cnn(-c2cccc3snnc23)c1C(F)(F)F    0 (no)
CC(=O)N1CCC(C(=O)N(C)[C@@H](c2ccc(Nc3cnc4nc(Cl)nn4c3C(C)C)cc2)C(F)(F)F)CC1    1 (yes)
CS(C)(=O)=Nc1ncc(NC(=O)c2cnn(-c3ccc(F)c4nccn34)c2C(F)(F)F)cc1F    0 (no)
COc1ccccc1-c1nsc(C(=O)Nc2ccnc(C(F)(F)F)c2)c1C1CC1    1 (yes)
NC(=O)c1ccc(-n2ncc(C(=O)Nc3cnc(-n4nccn4)c(Cl)c3)c2C(F)(F)F)n2ccnc12    1 (yes)
CO[C@@H](c1c(NC(=O)Nc2cnc(-n3nccn3)c(C(F)(F)F)c2)cnc(C)c1C#N)C1CC1    1 (yes)
O=C(Nc1cnc(-n2nccn2)c(Cl)c1)c1cnn(-c2cccc3nccn23)c1C(F)(F)F    1 (yes)
N#Cc1cncc(NC(=O)c2cnn(-c3cncc4ccccc34)c2C(F)(F)F)c1    1 (yes)
Cc1cc2nccc(-n3ncc(C(=O)Nc4cnc(-n5nccn5)c(C#N)c4)c3C(F)(F)F)c2s1    0 (no)
CN1CCC(Oc2ncc(NC(=O)c3cnn(-c4cncc5ccccc45)c3C(F)(F)F)cc2C#N)CC1    0 (no)
CC(O)c1ncc(-n2ncc(C(=O)Nc3cnc(-n4nccn4)c(Cl)c3)c2C(F)(F)F)c2ccsc12 (stereo not shown)    1 (yes)
